Assay: A CellTox Green Cytotoxicity Assay to monitor cytotoxicity in HepG2 cells - 32 hour (AID 1224883); also: nearly all actives have a fitted effect of over 50% in size
Conditions: CellTox Green fluorescence; series mostly up to 76.8 µM
Records with an inconclusive call do not appear. Calls of active or inactive are those of the source. Calls follow the shape of the dose curve; as a rule, active = well fitted activation curve with a large enough effect in the repeat runs; inconclusive = weak or mixed curves; inactive = flat fitted curve, though single readings scatter.
Classes used: yes (1) for active, no (0) for inactive

molecule: CCCCCCC(C)(C)S
category: no (0)
--
molecule: O=C(Oc1ccccc1)c1ccc(O)cc1
category: no (0)
--
molecule: Cc1ccc(C(=O)O)o1
category: no (0)
--
molecule: CC(=O)[C@@]1(O)CC[C@H]2[C@@H]3CCC4=CC(=O)CC[C@]4(C)[C@H]3CC[C@@]21C
category: no (0)
--
molecule: CC(C)Cc1ccccc1
category: no (0)
--
molecule: CN(C)c1cccc(O)c1
category: no (0)
--
molecule: NCc1cccc(CN)c1
category: no (0)
--
molecule: OC1CCCC1
category: no (0)
--
molecule: NCCc1ccc(O)c(O)c1
category: no (0)
--
molecule: CC(C)(C)C1CCC(O)CC1 (configuration not stated)
category: no (0)
--
molecule: O=Nc1ccc(O)cc1
category: no (0)
--
molecule: CC[Si](OC(C)=O)(OC(C)=O)OC(C)=O
category: no (0)
--
molecule: Oc1c(Cl)cc(Cl)c(Cl)c1Cl
category: no (0)
--
molecule: OC[C@@H](O)[C@@H](O)[C@H](O)[C@@H](O)CO
category: no (0)
--
molecule: CC(=O)CCc1ccccc1
category: no (0)
--
molecule: CCCCC(CC)COC(C)=O (configuration not stated)
category: no (0)
--
molecule: CCC(=O)O
category: no (0)
--
molecule: CS(=O)(=O)Nc1ccc([N+](=O)[O-])cc1Oc1ccccc1
category: no (0)
--
molecule: CCCCC/C=C\C/C=C\CCCCCCCC(=O)OC
category: no (0)
--
molecule: O=S(=O)(O)CCS
category: no (0)
--
molecule: C[C@@H]1O[C@@H](OC[C@H]2O[C@@H](Oc3c(-c4ccc(O)c(O)c4)oc4cc(O)cc(O)c4c3=O)[C@H](O)[C@@H](O)[C@@H]2O)[C@H](O)[C@H](O)[C@H]1O
category: no (0)
--
molecule: O=[N+]([O-])C(CO)(CO)CO
category: no (0)
--
molecule: O=S(=O)(O)c1cc(S(=O)(=O)O)c2c(N=Nc3ccccc3)c(O)ccc2c1
category: no (0)
--
molecule: Clc1ccc(Cl)c(Cl)c1Cl
category: no (0)
--
molecule: CC(=O)Nc1ccc(C(=O)O)cc1
category: no (0)
--
molecule: Nc1cc(-c2ccncc2)c[nH]c1=O
category: no (0)
--
molecule: O=C1O[C@H](CO)[C@@H](O)[C@H](O)[C@H]1O
category: no (0)
--
molecule: Oc1ccc2ccccc2c1N=Nc1ccccc1
category: no (0)
--
molecule: CCCCCCCCCCC=CC1CC(=O)OC1=O (configuration not stated)
category: no (0)
--
molecule: CN(CCOc1ccc(CC2SC(=O)NC2=O)cc1)c1ccccn1 (configuration not stated)
category: no (0)
--
molecule: CS(=O)(=O)c1ccc([C@@H](O)[C@@H](CO)NC(=O)C(Cl)Cl)cc1
category: no (0)
--
molecule: OCC1CCCO1 (configuration not stated)
category: no (0)
--
molecule: O=C(c1cc(O)c(O)c(O)c1)c1ccc(O)c(O)c1O
category: no (0)
--
molecule: S=c1nc[nH]c2nc[nH]c12
category: no (0)
--
molecule: NS(=O)(=O)c1cc2c(cc1Cl)NC=NS2(=O)=O
category: no (0)
--
molecule: OC[C@@H](O)[C@H](O)[C@H](O)[C@@H](O)CO
category: no (0)
--
molecule: Cc1cc(=O)[nH]c(C(C)C)n1
category: no (0)
--
molecule: Cc1cc(NS(=O)(=O)c2ccc(N)cc2)no1
category: no (0)
--
molecule: CCCCNC(N)=O
category: no (0)
--
molecule: CCC(C)C=O (configuration not stated)
category: no (0)
--
molecule: Cn1c([N+](=O)[O-])cnc1COC(N)=O
category: no (0)
--
molecule: CCc1ccccc1O
category: no (0)
--
molecule: C=C(C#N)C(=O)OCC
category: no (0)
--
molecule: CCCCC(CC)COC(=O)CCCCCCCC(=O)OCC(CC)CCCC (configuration not stated)
category: yes (1)
--
molecule: C=C(C)C(=O)OCCC[Si](OC)(OC)OC
category: no (0)
--
molecule: Cc1cc(Cc2ccc(N)c(C)c2)ccc1N
category: no (0)
--
molecule: CC1(C)CC(N=C=O)CC(C)(CN=C=O)C1 (configuration not stated)
category: no (0)
--
molecule: O=C1N=C(O)CN1/N=C/c1ccc(-c2ccc([N+](=O)[O-])cc2)o1
category: no (0)
--
molecule: C=C1CC[C@H](O)CC1=C/C=C1\CCC[C@]2(C)[C@@H]([C@H](C)/C=C/[C@H](C)C(C)C)CC[C@@H]12
category: no (0)
--
molecule: CCCCCCCCCC(=O)O
category: no (0)
--
molecule: CCCCCCCCC
category: no (0)
--
molecule: C=C1C2CCC(C2)C1(C)C (configuration not stated)
category: no (0)
--
molecule: CC1=C(CC(=O)O)c2cc(F)ccc2/C1=C\c1ccc(S(C)=O)cc1 (configuration not stated)
category: no (0)
--
molecule: c1ccc2ccccc2c1
category: no (0)
--
molecule: ClC1=C(Cl)C(Cl)(Cl)C(Cl)=C1Cl
category: no (0)
--
molecule: Cc1ccc(C)c(C)c1
category: no (0)
--
molecule: CCOC(=O)[C@H](CCc1ccccc1)N[C@@H](C)C(=O)N1Cc2ccccc2C[C@H]1C(=O)O
category: no (0)

###

Experiment: Caspase-3/7 induction in HepG2 cells by small molecules, qHTS assay (AID 1346978); also: nearly all actives have a fitted effect of over 15% in size
Settings: HepG2 caspase-3/7 activation, Caspase-Glo luminescence, 17 h; series mostly up to 92.4 µM
Records with an inconclusive call do not appear. Activity calls are given as the source filed them. Calls follow the shape of the dose curve; as a rule, active = well fitted activation curve with a large enough effect in the repeat runs; inconclusive = weak or mixed curves; inactive = flat fitted curve, though single readings scatter.
Classes used: Y (active), N (inactive)

molecule: CC(C)(N=C=O)c1cccc(C(C)(C)N=C=O)c1
category: N

molecule: CCOC(=O)[C@H](CCc1ccccc1)N[C@@H](C)C(=O)N1Cc2ccccc2C[C@H]1C(=O)O
category: N

molecule: CCCCC(CC)C(=O)OCCOCCOCCOC(=O)C(CC)CCCC (centres undefined)
category: N

molecule: OC1CCCC1
category: N

molecule: O=S(=O)(O)CCS
category: N

molecule: CCC(C)C=O (centres undefined)
category: N

molecule: NC(=O)NNc1ccccc1
category: N

molecule: ClC1=C(Cl)C(Cl)(Cl)C(Cl)=C1Cl
category: N

molecule: CC1CC(OC(=O)c2ccccc2O)CC(C)(C)C1 (centres undefined)
category: N

molecule: CC(C)n1c(/C=C/[C@@H](O)C[C@@H](O)CC(=O)O)c(-c2ccc(F)cc2)c2ccccc21
category: Y

molecule: O=C(O)c1cc(-c2ccccc2)nc2ccccc12
category: N

molecule: O=S(=O)(O)c1cc(S(=O)(=O)O)c2c(N=Nc3ccccc3)c(O)ccc2c1
category: N

molecule: Oc1ccc(OCc2ccccc2)cc1
category: N

molecule: CCCCC(CC)COC(C)=O (centres undefined)
category: N

###

Assay: qHTS assay to identify small molecule antagonists of the sonic hedgehog signaling (Shh) pathway - cell viability counter screen (AID 1259367); also: nearly all actives have a fitted effect of over 55% in size
Conditions: NIH/3T3 Gli1-Luc viability, CellTiter-Fluor, 24 h; series mostly up to 92.4 µM
Records with an inconclusive call do not appear. The source made the active and inactive calls. The call rests on the fitted dose curve; in most records, active means well fitted cell-killing curve with a large enough effect in the repeat runs; inconclusive means weak or mixed curves, or effect the other way; inactive means no such curve, though single readings can be large or run the other way.
Classes used: 1 (active), -1 (inactive)

structure string: CCCCC/C=C\C/C=C\CCCCCCCC(=O)OC
category: -1

structure string: O=C(O)c1ccc([N+](=O)[O-])cc1
category: -1

structure string: C[C@@H]1O[C@@H](OC[C@H]2O[C@@H](Oc3c(-c4ccc(O)c(O)c4)oc4cc(O)cc(O)c4c3=O)[C@H](O)[C@@H](O)[C@@H]2O)[C@H](O)[C@H](O)[C@H]1O
category: -1

structure string: O=C(c1cc(O)c(O)c(O)c1)c1ccc(O)c(O)c1O
category: 1

structure string: CCc1ccc(O)cc1
category: -1

structure string: CCC(=O)O
category: -1

structure string: Cc1ccc(C)c(C)c1
category: -1

structure string: CC(C)(C)C(=O)C1C(=O)c2ccccc2C1=O
category: 1

structure string: Oc1ccc2ccccc2c1
category: -1

structure string: CC(=O)CCc1ccccc1
category: -1

structure string: CCCCOCCO
category: -1

structure string: Cc1cc(NS(=O)(=O)c2ccc(N)cc2)no1
category: -1

structure string: CC(=O)[C@@]1(O)CC[C@H]2[C@@H]3CCC4=CC(=O)CC[C@]4(C)[C@H]3CC[C@@]21C
category: -1
